# ASSAY DETAILS: Rifaximin systemic exposure/pharmacokinetics in healthy subjects, IBS subjects and liver impaired subjects
# Assay type: in vivo, human
# CONDITION DESCRIPTION: human, plasma, oral, 550 mg, single 550-mg dose, fasted healthy subjects; read-out: Cmax
PARAMETER MEASURED: Cmax (ng/mL)
All answers are understood in ng/mL, so give the number only.

// CO[C@H]1/C=C/O[C@@]2(C)Oc3c(C)c(O)c4c(O)c(c5c(nc6cc(C)ccn65)c4c3C2=O)NC(=O)/C(C)=C\C=C\[C@H](C)[C@H](O)[C@@H](C)[C@@H](O)[C@@H](C)[C@H](OC(C)=O)[C@@H]1C : Cmax value = 4.1

The measured values listed here are drawn from patent US10610522B2.
